System: L. donovani MHOM/IN/80/DD8 (ATCC50212)
Assay: L. donovani DD8 intracellular (THP-1) amastigote assay
Format: cell-based
Details: Leishmania donovani, read-out: antiparasitic IC50 L. donovani
Provide the recorded IC50 for the entries that follow.

Some entries whose results are on file:
>  <molecule>
O=c1c2nc([N+](=O)[O-])cn2ccn1CCN1CCOCC1 [17q]

>  <IC50>
> 80 µM

$$$$
>  <molecule>
Cc1cn2cc([N+](=O)[O-])nc2c(OCCO)n1 [25e]

>  <IC50>
> 80 µM

$$$$
>  <molecule>
CC(c1ccc(F)cc1)n1ccn2cc([N+](=O)[O-])nc2c1=O (centres unmarked) [17l]

>  <IC50>
> 80 µM

$$$$
>  <molecule>
Cc1ccc(Cn2c(C)c(C)n3cc([N+](=O)[O-])nc3c2=O)cc1 [26d]

>  <IC50>
> 40 µM

$$$$
>  <molecule>
O=c1c2nc([N+](=O)[O-])cn2ccn1C1CCCCC1 [17t]

>  <IC50>
> 80 µM

$$$$

Okay, here is my list. What is IC50 for each of these?
1. CC(=O)OCCOc1nc(-c2ccccc2)cn2cc([N+](=O)[O-])nc12 [24c]
2. Cc1nc(OCc2cccc(OC(F)(F)F)c2)c2nc([N+](=O)[O-])cn2c1C [26g]
3. O=c1c2nc([N+](=O)[O-])cn2ccn1Cc1cccc(OC(F)(F)F)c1 [17f]
4. Cc1ccc(Cn2c(C)cn3cc([N+](=O)[O-])nc3c2=O)cc1 [25h]
5. O=c1[nH]c(-c2ccccc2)cn2cc([N+](=O)[O-])nc12 [24a]
6. O=c1c2nc([N+](=O)[O-])cn2ccn1Cc1ccc(F)cc1 [17e]

**A:**
["> 80 µM", "> 20 µM", "> 80 µM", "> 40 µM", "> 80 µM", "> 80 µM"]

Okay, here is my list. What is IC50 for each of these?
1. Cc1ccc(Cn2ccn3cc([N+](=O)[O-])nc3c2=O)cc1 [17d]
2. Cc1cn2cc([N+](=O)[O-])nc2c(OCc2ccccc2OC(F)(F)F)n1 [25m]

**A:**
> 80 µM
> 40 µM

Okay, here is my list. What is IC50 for each of these?
1. Cc1cn2cc([N+](=O)[O-])nc2c(=O)n1Cc1cccc(OC(F)(F)F)c1 [25j]
2. Cc1ccc(COc2nc(C)c(C)n3cc([N+](=O)[O-])nc23)cc1 [26e]
3. NC(=O)Cn1ccn2cc([N+](=O)[O-])nc2c1=O [17s]
4. O=[N+]([O-])c1cn2cc(-c3ccccc3)nc(OCCO)c2n1 [24e]
5. Cc1cn2cc([N+](=O)[O-])nc2c(=O)n1Cc1ccccc1OC(F)(F)F [25l]
6. O=c1c2nc([N+](=O)[O-])cn2ccn1Cc1ccccc1 [17b]
7. Cc1cn2cc([N+](=O)[O-])nc2c(OCc2cccc(OC(F)(F)F)c2)n1 [25k]
8. CC(=O)OCCn1c(-c2ccccc2)cn2cc([N+](=O)[O-])nc2c1=O [24b]

**A:**
1. > 20 µM
2. > 20 µM
3. > 80 µM
4. > 80 µM
5. > 40 µM
6. > 80 µM
7. > 40 µM
8. > 80 µM

Okay, here is my list. What is IC50 for each of these?
1. O=c1c2nccn2ccn1Cc1ccccc1 [20b, 7-Benzylimidazo[1,2-a]pyrazin-8(7H)-one]
2. O=c1c2nc([N+](=O)[O-])cn2ccn1Cc1ccc(OC(F)(F)F)cc1 [17c]

**A:**
["> 80 µM", "> 80 µM"]

###

Test: Kinetic solubility determination by LC-UV
Settings: PBS, pH 7.4, Solubility µM (PBS), PBS pH 7.4, 24 h, room temperature, 1% DMSO
Provide the recorded solubility at 24 h for the entries that follow.

Okay, here is my list. What is solubility at 24 h for each of these?
1. Cc1cn2cc([N+](=O)[O-])nc2c(=O)[nH]1 [25a]
2. Cc1cn2cc([N+](=O)[O-])nc2c(=O)n1CCO [25d]
3. O=c1c2nc([N+](=O)[O-])cn2ccn1Cc1ccc(F)cc1 [17e]
4. O=c1c2nc([N+](=O)[O-])cn2ccn1Cc1cccc(OC(F)(F)F)c1 [17f]
5. O=c1c2nc([N+](=O)[O-])cn2ccn1Cc1ccc(OC(F)(F)F)cc1 [17c]

**A:**
183 µM
> 200 µM
< 5 µM
< 5 µM
< 5 µM
